Endpoint: pKi. System: Carbonic anhydrase 9 (Homo sapiens, UniProt Q16790). Items follow.
Quick note: pKi means taking -log10 of the concentration in moles per liter.

>  <SMILES>
NS(=O)(=O)c1cccc(NC(=[Se])Nc2ccccc2)c1

>  <OBSERVED VALUE>
6.48

$$$$
>  <SMILES>
NS(=O)(=O)c1ccc(NC(=[Se])Nc2ccc(F)cc2)cc1

>  <OBSERVED VALUE>
7.20

$$$$
>  <SMILES>
NS(=O)(=O)c1ccc(CCNC(=[Se])Nc2cccc(C(F)(F)F)c2)cc1

>  <OBSERVED VALUE>
8.24

$$$$

Entry NS(=O)(=O)c1ccc(CCNC(=[Se])Nc2ccc(I)cc2)cc1 ; assay system Carbonic anhydrase 9 (Homo sapiens, UniProt Q16790); pKi recorded at 7.26

Per the reported Carbonic anhydrase 9 (Homo sapiens, UniProt Q16790) data, NS(=O)(=O)c1ccc(NC(=[Se])Nc2ccccc2)cc1 has pKi of 7.10

Record NS(=O)(=O)c1ccc(CCNC(=[Se])Nc2ccc(Br)cc2)cc1 ; system Carbonic anhydrase 9 (Homo sapiens, UniProt Q16790); pKi = 8.32

Record for COc1ccccc1NC(=[Se])NCCc1ccc(S(N)(=O)=O)cc1 under target or system Carbonic anhydrase 9 (Homo sapiens, UniProt Q16790): pKi reported as 8.51

NS(=O)(=O)c1cccc(NC(=[Se])Nc2ccc(F)cc2)c1 on Carbonic anhydrase 9 (Homo sapiens, UniProt Q16790) gives pKi = 7.01
